Hello, the source for this data is patent US20210347873A1, in case you need it.

biological target: T1, human BLyS (full length, arginine to histidine at position 132) on CHO-K1 cells (human, UniProt Q9Y275 1-285); test: flow cytometry, CHO-K1 hBLyS cells, antibody 2.67 nM
T1 construct: also called hBLyS; CHO-K1 hBLyS
T1 sequence (Q9Y275 whole entry R130H): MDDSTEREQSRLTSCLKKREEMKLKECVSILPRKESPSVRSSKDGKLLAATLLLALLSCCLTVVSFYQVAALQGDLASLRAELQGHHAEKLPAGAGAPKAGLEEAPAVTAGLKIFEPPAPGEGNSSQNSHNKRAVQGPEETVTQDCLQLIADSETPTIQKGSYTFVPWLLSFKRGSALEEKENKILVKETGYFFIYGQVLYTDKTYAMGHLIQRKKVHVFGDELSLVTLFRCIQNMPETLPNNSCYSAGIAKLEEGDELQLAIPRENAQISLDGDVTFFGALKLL
Property Label: MFI (MFI)
Answers are plain numbers, in MFI.

| Binder | MFI, MFI |
| --- | --- |
| 89A2G5E7 (antibody, V domains shown, Mouse hybridoma monoclonal antibody purified on Protein G) VH: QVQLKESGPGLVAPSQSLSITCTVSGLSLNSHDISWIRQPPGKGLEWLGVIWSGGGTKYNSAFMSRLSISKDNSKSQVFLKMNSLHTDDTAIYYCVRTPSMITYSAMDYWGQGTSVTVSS VL: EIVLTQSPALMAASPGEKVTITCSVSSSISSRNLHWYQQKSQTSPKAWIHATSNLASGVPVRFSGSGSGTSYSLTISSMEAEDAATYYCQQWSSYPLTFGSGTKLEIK | 374 |
| 97E7B3F2 (antibody, V domains shown, Mouse hybridoma monoclonal antibody purified on Protein G) VH: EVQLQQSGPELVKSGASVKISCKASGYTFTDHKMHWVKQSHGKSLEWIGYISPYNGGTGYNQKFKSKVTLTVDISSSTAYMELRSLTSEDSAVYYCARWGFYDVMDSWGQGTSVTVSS VL: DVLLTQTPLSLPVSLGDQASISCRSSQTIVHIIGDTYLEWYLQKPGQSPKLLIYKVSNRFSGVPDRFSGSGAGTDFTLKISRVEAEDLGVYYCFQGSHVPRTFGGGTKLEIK | 332 |

Answer for every listed entry: what is its MFI? The entries follow.
1. L9G7 (antibody, V domains shown, From a human naive scFv phage library; also called human BLyS antibody L9G7) VH: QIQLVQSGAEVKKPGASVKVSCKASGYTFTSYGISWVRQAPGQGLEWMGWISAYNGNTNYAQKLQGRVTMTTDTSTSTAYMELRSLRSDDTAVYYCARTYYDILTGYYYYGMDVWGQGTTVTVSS VL: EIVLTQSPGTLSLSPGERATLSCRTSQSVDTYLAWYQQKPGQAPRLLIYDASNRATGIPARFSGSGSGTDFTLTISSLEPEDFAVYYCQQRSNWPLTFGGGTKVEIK
2. 20D1B6E9E5 (antibody, V domains shown, Mouse hybridoma monoclonal antibody purified on Protein G) VH: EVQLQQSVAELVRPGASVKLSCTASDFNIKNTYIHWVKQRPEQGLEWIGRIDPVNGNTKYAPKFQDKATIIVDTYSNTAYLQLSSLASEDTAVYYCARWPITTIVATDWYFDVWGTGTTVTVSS VL: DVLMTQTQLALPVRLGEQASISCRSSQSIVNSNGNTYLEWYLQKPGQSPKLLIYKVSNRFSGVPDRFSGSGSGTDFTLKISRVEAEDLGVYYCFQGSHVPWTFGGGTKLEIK
3. 97A3C2H4 (antibody, V domains shown, Mouse hybridoma monoclonal antibody purified on Protein G) VH: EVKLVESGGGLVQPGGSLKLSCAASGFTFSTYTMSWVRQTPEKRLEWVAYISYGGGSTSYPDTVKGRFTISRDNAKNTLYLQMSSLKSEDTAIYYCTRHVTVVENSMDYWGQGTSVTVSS VL: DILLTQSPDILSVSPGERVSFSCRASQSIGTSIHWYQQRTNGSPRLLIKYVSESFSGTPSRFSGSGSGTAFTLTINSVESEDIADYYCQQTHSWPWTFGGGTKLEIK

OUTPUT:
1. 591
2. 474
3. 448
